details: in acetonitrile, 293.15 K
ENDPOINT NAME: solubility (mole fraction)
Just the number, please.

IN: Tell me solubility (mole fraction) reported for O=C(O)CNC(=O)C(=O)NCC(=O)O
OUT: 1.6e-06

====

details: in n-butanol, 303.15 K
ENDPOINT NAME: solubility (mole fraction)
Just the number, please.

IN: Tell me solubility (mole fraction) reported for O=C(O)CNC(=O)C(=O)NCC(=O)O
OUT: 1e-05

====

conditions: in ethyl acetate, 323.15 K
ENDPOINT NAME: solubility (mole fraction)
Just the number, please.

IN: Tell me solubility (mole fraction) reported for O=C(O)CNC(=O)C(=O)NCC(=O)O
OUT: 2.24e-05

====

conditions: in n-butanol, 293.15 K
ENDPOINT NAME: solubility (mole fraction)

IN: Tell me solubility (mole fraction) reported for O=C(O)CNC(=O)C(=O)NCC(=O)O
OUT: 2.9e-06

====

details: in water, 298.15 K
ENDPOINT NAME: solubility (mole fraction)
Just the number, please.

IN: Tell me solubility (mole fraction) reported for O=C(O)CNC(=O)C(=O)NCC(=O)O
OUT: 0.000183

====

conditions: in ethanol, 293.15 K
ENDPOINT NAME: solubility (mole fraction)
Just the number, please.

IN: Tell me solubility (mole fraction) reported for O=C(O)CNC(=O)C(=O)NCC(=O)O
OUT: 2.08e-05

====

details: in DMSO, 293.15 K
ENDPOINT NAME: solubility (mole fraction)
Just the number, please.

IN: Tell me solubility (mole fraction) reported for O=C(O)CNC(=O)C(=O)NCC(=O)O
OUT: 0.0675

====

conditions: in n-propanol, 328.15 K
ENDPOINT NAME: solubility (mole fraction)
Just the number, please.

IN: Tell me solubility (mole fraction) reported for O=C(O)CNC(=O)C(=O)NCC(=O)O
OUT: 0.000198

====

conditions: in DMF, 298.15 K
ENDPOINT NAME: solubility (mole fraction)
Just the number, please.

IN: Tell me solubility (mole fraction) reported for O=C(O)CNC(=O)C(=O)NCC(=O)O
OUT: 0.0401

====

settings: in acetonitrile, 303.15 K
ENDPOINT NAME: solubility (mole fraction)

IN: Tell me solubility (mole fraction) reported for O=C(O)CNC(=O)C(=O)NCC(=O)O
OUT: 5.6e-06

====

details: in methanol, 293.15 K
ENDPOINT NAME: solubility (mole fraction)
Just the number, please.

IN: Tell me solubility (mole fraction) reported for O=C(O)CNC(=O)C(=O)NCC(=O)O
OUT: 0.000159

====

conditions: in ethanol, 298.15 K
ENDPOINT NAME: solubility (mole fraction)
Just the number, please.

IN: Tell me solubility (mole fraction) reported for O=C(O)CNC(=O)C(=O)NCC(=O)O
OUT: 3.75e-05

====

conditions: in isopropanol, 318.15 K
ENDPOINT NAME: solubility (mole fraction)
Just the number, please.

IN: Tell me solubility (mole fraction) reported for O=C(O)CNC(=O)C(=O)NCC(=O)O
OUT: 0.000118

====

details: in DMSO, 303.15 K
ENDPOINT NAME: solubility (mole fraction)
Just the number, please.

IN: Tell me solubility (mole fraction) reported for O=C(O)CNC(=O)C(=O)NCC(=O)O
OUT: 0.0807

====

details: in isopropanol, 298.15 K
ENDPOINT NAME: solubility (mole fraction)
Just the number, please.

IN: Tell me solubility (mole fraction) reported for O=C(O)CNC(=O)C(=O)NCC(=O)O
OUT: 1.47e-05
